# System: Streptococcus pyogenes
# experiment summary: Antimicrobial activity against Streptococcus pyogenes 3 expressing mefA after 20 hrs by agar dilution method
# Format: functional
Readings of MIC for the listed compounds
readout name: MIC (µg/mL)

INSERT INTO measurements (compound, numeric_value) VALUES
  ('CCOC(=O)[C@H]1[C@H](C)O[C@@H](O[C@H]2[C@H](N(C)C)[C@@H](O)[C@H](O[C@H]3[C@@H](CC=O)C[C@@H](C)[C@@H](O)CN(C)CC(/C=C/Cc4ccnc5ccccc45)CCOC(=O)C[C@@H](OC(=O)CC)[C@@H]3OC)O[C@@H]2C)C[C@@]1(C)O (stereo in doubt; form 2)', 0.25),
  ('CCOC(=O)[C@H]1[C@H](C)O[C@@H](O[C@H]2[C@H](N(C)C)[C@@H](O)[C@H](O[C@H]3[C@@H](CC=O)C[C@@H](C)[C@@H](O)CN(C)CC(/C=C/Cc4cnc5ccccc5c4)CCOC(=O)C[C@@H](OC(=O)CC)[C@@H]3OC)O[C@@H]2C)C[C@@]1(C)O (stereo in doubt; form 1)', 0.13),
  ('CCOC(=O)[C@H]1[C@H](C)O[C@@H](O[C@H]2[C@H](N(C)C)[C@@H](O)[C@H](O[C@H]3[C@@H](CC=O)C[C@@H](C)[C@@H](O)CN(CCCCc4ccccc4)CCC(C)NC(=O)C[C@@H](OC(=O)CC)[C@@H]3OC)O[C@@H]2C)C[C@@]1(C)OC(C)=O (stereo in doubt; form 2)', 0.25),
  ('CCOC(=O)[C@H]1[C@H](C)O[C@@H](O[C@H]2[C@H](N(C)C)[C@@H](O)[C@H](O[C@H]3[C@@H](CC=O)C[C@@H](C)[C@@H](O)CN(C)CCC(/C=C/Cc4ccnc5ccccc45)NC(=O)C[C@@H](OC(=O)CC)[C@@H]3OC)O[C@@H]2C)C[C@@]1(C)O (stereo in doubt)', 2),
  ('CCOC(=O)[C@H]1[C@H](C)O[C@@H](O[C@H]2[C@H](N(C)C)[C@@H](O)[C@H](O[C@H]3[C@@H](CC=O)C[C@@H](C)[C@@H](O)CN(C)CCC(C/C=C/c4cnc5ccccc5c4)NC(=O)C[C@@H](OC(=O)CC)[C@@H]3OC)O[C@@H]2C)C[C@@]1(C)O (stereo in doubt; form 2)', 4),
  ('CCOC(=O)[C@H]1[C@H](C)O[C@@H](O[C@H]2[C@H](N(C)C)[C@@H](O)[C@H](O[C@H]3[C@@H](CC=O)C[C@@H](C)[C@@H](O)CN(C)CC(CCCc4ccnc5ccccc45)CCOC(=O)C[C@@H](OC(=O)CC)[C@@H]3OC)O[C@@H]2C)C[C@@]1(C)O (stereo in doubt; form 2)', 0.25),
  ('CCOC(=O)[C@H]1[C@H](C)O[C@@H](O[C@H]2[C@H](N(C)C)[C@@H](O)[C@H](O[C@H]3[C@@H](CC=O)C[C@@H](C)[C@@H](O)CN(C)CC(/C=C\Cc4ccnc5ccccc45)CCOC(=O)C[C@@H](OC(=O)CC)[C@@H]3OC)O[C@@H]2C)C[C@@]1(C)O (stereo in doubt; form 2)', 4);

###

# Tested on: Streptococcus pneumoniae
# experiment summary: Antimicrobial activity against Streptococcus pneumoniae 10 expressing mefA after 20 hrs by agar dilution method
# Type: functional
# test conditions: Streptococcus pneumoniae, 20 h; read-out: MIC
readout name: MIC (µg/mL)

INSERT INTO assay_data (molecule, readout_name, numeric_value) VALUES
  ('CCOC(=O)[C@H]1[C@H](C)O[C@@H](O[C@H]2[C@H](N(C)C)[C@@H](O)[C@H](O[C@H]3[C@@H](CC=O)C[C@@H](C)[C@@H](O)CN(C)CC(CCCc4ccnc5ccccc45)CCOC(=O)C[C@@H](OC(=O)CC)[C@@H]3OC)O[C@@H]2C)C[C@@]1(C)O (stereo in doubt; form 1)', 'MIC', 0.03),
  ('CCOC(=O)[C@H]1[C@H](C)O[C@@H](O[C@H]2[C@H](N(C)C)[C@@H](O)[C@H](O[C@H]3[C@@H](CC=O)C[C@@H](C)[C@@H](O)CN(C)CC(/C=C/Cc4cccc5cccnc45)CCOC(=O)C[C@@H](OC(=O)CC)[C@@H]3OC)O[C@@H]2C)C[C@]1(C)O (some centres not stated)', 'MIC', 0.03);

###

Readings of MIC for the listed compounds
# Test system: Staphylococcus aureus
# experiment summary: Antimicrobial activity against drug-susceptible Staphylococcus aureus 2 after 20 hrs by agar dilution method
# Assay type: functional
# test conditions: Staphylococcus aureus, 20 h; read-out: MIC
readout name: MIC (µg/mL)

INSERT INTO measurements (smiles_text, readout_name, numeric_value) VALUES
  ('CCOC(=O)[C@H]1[C@H](C)O[C@@H](O[C@H]2[C@H](N(C)C)[C@@H](O)[C@H](O[C@H]3[C@@H](CC=O)C[C@@H](C)[C@@H](O)CN(C)CCC[C@H](C/C=C/c4ccnc5ccccc45)OC(=O)C[C@@H](OC(=O)CC)[C@@H]3OC)O[C@@H]2C)C[C@@]1(C)O', 'MIC', 1),
  ('CCOC(=O)[C@H]1[C@H](C)O[C@@H](O[C@H]2[C@H](N(C)C)[C@@H](O)[C@H](O[C@H]3[C@@H](CC=O)C[C@@H](C)[C@@H](OC(C)=O)CN(CCCCc4ccccc4)CCCOC(=O)C[C@@H](OC(=O)CC)[C@@H]3OC)O[C@@H]2C)C[C@@]1(C)OC(C)=O', 'MIC', 1),
  ('CCOC(=O)[C@H]1[C@H](C)O[C@@H](O[C@H]2[C@H](N(C)C)[C@@H](O)[C@H](O[C@H]3[C@@H](CC=O)C[C@@H](C)[C@@H](OC(C)=O)CN(CCCCc4ccccc4)CCNC(=O)C[C@@H](OC(=O)CC)[C@@H]3OC)O[C@@H]2C)C[C@@]1(C)OC(C)=O', 'MIC', 2),
  ('CCOC(=O)[C@H]1[C@H](C)O[C@@H](O[C@H]2[C@H](N(C)C)[C@@H](O)[C@H](O[C@H]3[C@@H](CC=O)C[C@@H](C)[C@@H](O)CN(C)CCC[C@@H](C/C=C/c4ccnc5ccccc45)OC(=O)C[C@@H](OC(=O)CC)[C@@H]3OC)O[C@@H]2C)C[C@@]1(C)O', 'MIC', 1);

###

# Tested on: Streptococcus pyogenes
# experiment summary: Antimicrobial activity against drug-susceptible Streptococcus pyogenes 1 after 20 hrs by agar dilution method
# Assay type: functional
readout name: MIC (µg/mL)

INSERT INTO measurements (compound, target_or_system, unit_string, numeric_value) VALUES
  ('CCOC(=O)[C@H]1[C@H](C)O[C@@H](O[C@H]2[C@H](N(C)C)[C@@H](O)[C@H](O[C@H]3[C@@H](CC=O)C[C@@H](C)[C@@H](O)CN(C)CC(/C=C\Cc4ccnc5ccccc45)CCOC(=O)C[C@@H](OC(=O)CC)[C@@H]3OC)O[C@@H]2C)C[C@@]1(C)O (stereo in doubt; form 1)', 'Streptococcus pyogenes', 'µg/mL', 0.13),
  ('CCOC(=O)[C@H]1[C@H](C)O[C@@H](O[C@H]2[C@H](N(C)C)[C@@H](O)[C@H](O[C@H]3[C@@H](CC=O)C[C@@H](C)[C@@H](O)CN(C)CC(/C=C\Cc4ccnc5ccccc45)CCOC(=O)C[C@@H](OC(=O)CC)[C@@H]3OC)O[C@@H]2C)C[C@@]1(C)O (stereo in doubt; form 2)', 'Streptococcus pyogenes', 'µg/mL', 1),
  ('CCOC(=O)[C@H]1[C@H](C)O[C@@H](O[C@H]2[C@H](N(C)C)[C@@H](O)[C@H](O[C@H]3[C@@H](CC=O)C[C@@H](C)[C@@H](O)CN(C)CC(/C=C/Cc4ccnc5ccccc45)CCOC(=O)C[C@@H](OC(=O)CC)[C@@H]3OC)O[C@@H]2C)C[C@@]1(C)O (stereo in doubt; form 1)', 'Streptococcus pyogenes', 'µg/mL', 0.03),
  ('CCOC(=O)[C@H]1[C@H](C)O[C@@H](O[C@H]2[C@H](N(C)C)[C@@H](O)[C@H](O[C@H]3[C@@H](CC=O)C[C@@H](C)[C@@H](O)CN(C)CCC(C/C=C/c4ccnc5ccccc45)NC(=O)C[C@@H](OC(=O)CC)[C@@H]3OC)O[C@@H]2C)C[C@@]1(C)O (stereo in doubt)', 'Streptococcus pyogenes', 'µg/mL', 0.5),
  ('CCOC(=O)[C@H]1[C@H](C)O[C@@H](O[C@H]2[C@H](N(C)C)[C@@H](O)[C@H](O[C@H]3[C@@H](CC=O)C[C@@H](C)[C@@H](O)CN(C)CCC(CCCc4ccnc5ccccc45)NC(=O)C[C@@H](OC(=O)CC)[C@@H]3OC)O[C@@H]2C)C[C@@]1(C)O (stereo in doubt; form 2)', 'Streptococcus pyogenes', 'µg/mL', 0.5),
  ('CCOC(=O)[C@H]1[C@H](C)O[C@@H](O[C@H]2[C@H](N(C)C)[C@@H](O)[C@H](O[C@H]3[C@@H](CC=O)C[C@@H](C)[C@@H](O)CN(C)CCC(/C=C/Cc4ccnc5ccccc45)NC(=O)C[C@@H](OC(=O)CC)[C@@H]3OC)O[C@@H]2C)C[C@@]1(C)O (stereo in doubt)', 'Streptococcus pyogenes', 'µg/mL', 0.5),
  ('CCOC(=O)[C@H]1[C@H](C)O[C@@H](O[C@H]2[C@H](N(C)C)[C@@H](O)[C@H](O[C@H]3[C@@H](CC=O)C[C@@H](C)[C@@H](O)CN(C)CC(/C=C/Cc4ccnc5ccccc45)CCOC(=O)C[C@@H](OC(=O)CC)[C@@H]3OC)O[C@@H]2C)C[C@@]1(C)O (stereo in doubt; form 2)', 'Streptococcus pyogenes', 'µg/mL', 0.13);
